Exercise: for every item that follows, state its recorded fold-difference in apparent Ks values compared to stearic and linoleic acids.
TEST SYSTEM: CYP168A1 (Pseudomonas aeruginosa)
Sequence (Q9I107 entry or part of it): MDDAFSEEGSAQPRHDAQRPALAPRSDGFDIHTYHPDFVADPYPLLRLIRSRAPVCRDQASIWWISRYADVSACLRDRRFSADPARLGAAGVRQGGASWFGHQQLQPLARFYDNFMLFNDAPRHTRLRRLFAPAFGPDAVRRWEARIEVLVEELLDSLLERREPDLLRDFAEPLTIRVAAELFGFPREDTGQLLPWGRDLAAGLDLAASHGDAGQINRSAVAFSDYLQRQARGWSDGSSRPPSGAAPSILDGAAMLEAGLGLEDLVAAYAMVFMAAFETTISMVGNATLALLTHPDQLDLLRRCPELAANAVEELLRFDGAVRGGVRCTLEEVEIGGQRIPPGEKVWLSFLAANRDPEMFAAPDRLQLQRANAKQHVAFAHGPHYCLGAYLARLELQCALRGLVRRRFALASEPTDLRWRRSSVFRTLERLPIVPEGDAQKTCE
MEASUREMENT NOTES: Fatty acid binding studies (spectral titration, type I difference spectra)

# input Item under review: CCCCC/C=C\C/C=C\C/C=C\C/C=C\CCCC(=O)O . Reported fold-difference in apparent Ks values compared to stearic and linoleic acids?
# output ~9160 fold

# input Item under review: CCCCCCCCCCCCCCCC(=O)O . Reported fold-difference in apparent Ks values compared to stearic and linoleic acids?
# output ~2 fold

# input Item under review: CCCCCCCCCCCCCC(=O)O . Reported fold-difference in apparent Ks values compared to stearic and linoleic acids?
# output ~5 fold

# input Item under review: CCCCCC/C=C\CCCCCCCC(=O)O . Reported fold-difference in apparent Ks values compared to stearic and linoleic acids?
# output ~3 fold
